These data points were gathered from paper PMC8551951.

Reported values of MIC for individual entries
Test system: C. neoformans (ATCC H99)
Test: microbe, parasite or virus in culture
Assay type: cell-based
Conditions: Cryptococcus neoformans

// below: answered compounds
COC(=O)Nc1nc2cc(C(=O)c3ccc(F)cc3)ccc2[nH]1 0.047 to 3.12 µM
COC(=O)Nc1nc2ccc(Sc3ccccc3)cc2[nH]1 0.047 to 3.12 µM
CCCSc1ccc2nc(NC(=O)OC)[nH]c2c1 0.047 to 3.12 µM

Shifting focus to the compound that follows.
Prompt: Query: MIC; subject: COC(=O)Nc1nc2ccc(C(=O)c3ccccc3)cc2[nH]1
Response: 0.047 to 3.12 µM
